All values here come from patent US5521167A.

Molecular target: Na^+,K^+ -ATPase (Canis lupus familiaris, UniProt P50997)
Construct: Na^+,K^+ -ATPase receptor purified according to Jorghensen; from tissue
Test: displacement of the specific ^3 H-ouabain binding from the purified Na^+,K^+ -ATPase receptor
Settings: ^3 H-ouabain displacement, purified Na^+,K^+ -ATPase; read-out: Binding ^3 H-Ouab. Displacement log IC50 (converted)
Procedure: To test the affinity for the receptor site of the Na^+,K^+ -ATPase and the agonist or antagonist activity on the enzyme, the following tests were used: a) displacement of the specific ^3 H-ouabain binding from the Na^+,K^+ -ATPase receptor purified according to Jorghensen (Jorghensen P., BBA, 1974, 356, 36) and Erdmann ( Erdmann E. et al., Arzneim. […] SBP and HR were measured daily 6 and 24 hours after the treatment.
ENDPOINT NAME: IC50
Give the figure together with its unit, number first.

| STRUCTURE SMILES STRING | MEASURED ON | IC50 |
| --- | --- | --- |
| C[C@]12CC[C@H](OCCOCCN3CCCC3)C[C@@H]1CC[C@@H]1[C@@H]2CC[C@@]2(C)[C@H]1CC[C@@]2(O)c1ccoc1 | Na^+,K^+ -ATPase (Canis lupus familiaris, UniProt P50997) | 501 nM |

Q) Check Na^+,K^+ -ATPase (Canis lupus familiaris, UniProt P50997) data and give IC50 for C[C@]12CC[C@H](OCCN3CCCC3)C[C@H]1CC[C@@H]1[C@@H]2CC[C@@]2(C)[C@H]1CC[C@@]2(OCCN1CCCC1)c1ccoc1 .
A) 398 nM

Q) Tell me IC50 of C[C@]12CC[C@H](OCCN3CCCC3)C[C@@H]1CC[C@@H]1[C@@H]2CC[C@@]2(C)[C@H]1CC[C@@]2(OCCN1CCCC1)c1ccoc1 when tested on Na^+,K^+ -ATPase (Canis lupus familiaris, UniProt P50997).
A) 398 nM

Q) State the measured IC50 (Na^+,K^+ -ATPase (Canis lupus familiaris, UniProt P50997)) of C[C@]12CC[C@H](OCCOCCN3CCCC3)C=C1CC[C@@H]1[C@@H]2CC[C@@]2(C)[C@H]1CC[C@@]2(OCCN)c1ccoc1
A) 316 nM

Q) Retrieve IC50 on Na^+,K^+ -ATPase (Canis lupus familiaris, UniProt P50997); query C[C@]12CC[C@H](OCCOCCN3CCCC3)CC1=CC[C@@H]1[C@@H]2CC[C@@]2(C)[C@H]1CC[C@@]2(OCCN1CCCC1)c1ccoc1
A) 398 nM

Q) Find IC50 for C[C@]12CC[C@H](OCCOCCN3CCCC3)C[C@@H]1CC[C@@H]1[C@@H]2CC[C@@]2(C)[C@H]1CC[C@@]2(OCCN)c1ccoc1 on Na^+,K^+ -ATPase (Canis lupus familiaris, UniProt P50997) and write it down.
A) 200 nM

Q) Tell me IC50 of C[C@]12CC[C@H](SCCOCCN3CCCC3)C[C@@H]1CC[C@@H]1[C@@H]2CC[C@@]2(C)[C@H]1CC[C@@]2(OCCN1CCCC1)c1ccoc1 when tested on Na^+,K^+ -ATPase (Canis lupus familiaris, UniProt P50997).
A) 316 nM
